# Tested on: BXPC-3
# assay remarks: cells
# run conditions: Homo sapiens
quantity kind: pIC50
pIC50 here is simply -log10 of the concentration when that concentration is written in mol/L.

## Task Given the entry CCN1CCN(Cc2ccc(Nc3ncc(F)c(-c4cc(F)c5nc(C)n(C(C)C)c5c4)n3)nc2)CC1 , report its measured pIC50.
## Result 6.90

* * *

# assay remarks: in vivo
# run conditions: BALB/c, mouse, iv, 3 mg/kg
quantity kind: Cmax at 24 h (ng/mL)
Unit ng/mL implied. Number only.

## Task Given the entry CCN1CCN(Cc2ccc(Nc3ncc(F)c(-c4cc(F)c5nc(C)n(C(C)C)c5c4)n3)nc2)CC1 , report its measured Cmax at 24 h.
## Result 765
